Where do the numbers come from? From PubChem BioAssay (NCATS).

Experiment: NFAT Signaling Pathway (AID 444);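 note: carbachol stimulus at about its EC50 of 1 µM final; % is set by controls: 0 for no effect and ±100 for the full control effect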
Settings: Jurkat NFAT-bla M1, carbachol, beta-lactamase ratio, 5 h; at 17.2 µM (top of the series) unless noted
Inconclusive results are not listed. Activity calls are given as the source filed them. Calls come from the whole dose curve; as a rule, active = well fitted curve in either direction with a large enough effect (not every such curve was filed as active); inconclusive = small, poorly fitted or top-dose-only effect, or another doubt; inactive = flat fitted curve, though single readings scatter.
measure: activity change, negative = inhibition

Answered cases to consult:
1) CC(=O)OC1(c2ccc(C)cc2)CN2CCC1c1ccccc12 (stereo not given)	-10.3% (inactive)
2) C=CCN1CC[C@@]23CCCC[C@@H]2[C@@H]1Cc1ccc(O)cc13	-24.3% [at 38 µM] (inactive)
3) COc1cc2[nH]c(=O)n(-c3cccc(Cl)c3)c(=O)c2cc1OC	13.7% (inactive)
4) O=c1[nH]c(=O)n(Cc2ccccc2)c(O)c1C=NCCN1CCOCC1	-7.84% (inactive)
5) CCCC12CN3CN(C1)CC(CCC)(C3)C2O (stereo not given)	-5.01% (inactive)

### Prompt # get_value(readout='activity change, negative = inhibition', item= CC1CN=C(Nc2ccc(N(C)C)cc2)S1 (stereo not given) )
### Response -26.5% (inactive)

### Prompt // same read-out, input: O=c1c(C=NCCN2CCNCC2)c(O)n(C2CCCCC2)c(=O)n1C1CCCCC1
### Response 18.3% (inactive)

### Prompt // same read-out, input: COCCOC(=O)C1=C(N)Oc2c(c(=O)oc3ccccc23)[C@@]12C(=O)Nc1ccccc12
### Response -5.71% (inactive)

### Prompt // same read-out, input: COc1ccc2c(c1)[C@]13CCCC[C@@H]1[C@H](C2)N(C)CC3
### Response -11.7% [at 38 µM] (inactive)

### Prompt // same read-out, input: CC(=O)C1(c2ccccc2)CCNCC1
### Response -17.3% (inactive)

---

Assay: AP1 Signaling Pathway (AID 357);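 note: ME-180 reporter cells stimulated with EGF at its EC50 level; % is set by controls: 0 for no effect and ±100 for the full control effect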
Conditions: ME-180 (cervical carcinoma) AP-1-bla reporter, EGF-induced, beta-lactamase ratio, 5 h; at 17.2 µM (top of the series) unless noted
Records with an inconclusive call do not appear. Calls of active or inactive are those of the source. The call rests on the fitted dose curve; in most records, active means well fitted curve in either direction with a large enough effect (not every such curve was filed as active); inconclusive means small, poorly fitted or top-dose-only effect, or another doubt; inactive means flat fitted curve, though single readings scatter.
// activity change, negative = inhibition lookup, one value per entry

Answered cases to consult:
1. C=CCC1(CN2CCCCCC2=O)C(=O)NC(=O)NC1=O	1.22% (inactive)
2. CCN(CC)C(=O)N[C@H]1C[C@H]2c3cccc4[nH]cc(c34)C[C@@H]2N(C)C1	9.81% [at 38 µM] (inactive)
3. COC(=O)C(O)(c1c[nH]c2ccccc12)C(F)(F)F (centres undefined)	-14.1% (inactive)
4. OC1(c2ccc(F)cc2)CCNC1 (centres undefined)	7.87% (inactive)
5. N[C@]1(C(=O)O)CC[C@@H](C(=O)O)C1	-3.05% [at 38 µM] (inactive)

### Prompt # get_value(readout='activity change, negative = inhibition', item= CNCCc1nc(N)n[nH]1 )
### Response 16.9% (inactive)

### Prompt // same read-out, input: CC(C)(C)c1ccc(O)c(C[N+](C)(C)C)c1
### Response -0.0649% [at 7.69 µM] (inactive)

### Prompt // same read-out, input: CCOc1ccc(-n2c(O)c(C=NCCN3CCNCC3)c(=O)[nH]c2=O)cc1
### Response 9.57% (inactive)

### Prompt // same read-out, input: CN1C(=O)CN=C(c2ccc(Cl)cc2)c2cc(Cl)ccc21
### Response 10.4% (inactive)

### Prompt // same read-out, input: COc1ccc(C2SCC(=O)Nc3c2c(=O)[nH]n3C2CCCCCC2)cc1 (centres undefined)
### Response -18.2% (inactive)

### Prompt // same read-out, input: CN1CCc2nc3sc(C#N)c(N)c3c(-c3cccs3)c2C1
### Response -0.879% (inactive)

### Prompt // same read-out, input: O=c1[nH]c(=O)n(Cc2ccccc2)c(O)c1C=NCCN1CCOCC1
### Response 1.24% (inactive)

---

Test system: ATS95
Assay: qHTS profiling for inhibitors of Plasmodium falciparum proliferation (AID 504749); note: nearly all actives have a fitted effect of over 60% in size
Conditions: P. falciparum in erythrocytes, SYBR Green DNA, 72 h; series mostly up to 28.7 µM
Inconclusive results are not listed. The source made the active and inactive calls. The call rests on the fitted dose curve; in most records, active means well fitted inhibition curve with a large enough effect; inconclusive means small, poorly fitted or top-dose-only effect; inactive means flat fitted curve, though single readings scatter.
Valid outcomes are listed here; reply with one: TRUE (active), FALSE (inactive)

1. CCOC(=O)c1cncn1[C@@H](C)c1ccccc1	FALSE
2. COC(=O)C1C(OC(=O)c2ccccc2)CC2CCC1N2C (stereo not drawn)	FALSE
3. CCCC(C)C1(CC)C(=O)NC(=S)NC1=O (stereo not drawn)	FALSE
4. CN(C)[C@@H](Cc1ccccc1)c1ccccc1	FALSE

Turning to the following compound.
### Prompt How was COC(C(=O)C(O)C(C)O)C1Cc2cc3cc(OC4CC(OC5CC(O)C(OC)C(C)O5)C(OC(C)=O)C(C)O4)c(C)c(O)c3c(O)c2C(=O)C1OC1CC(OC2CC(OC3CC(C)(O)C(OC(C)=O)C(C)O3)C(O)C(C)O2)C(O)C(C)O1 (stereo not drawn) classified in this test?
### Response TRUE

---

Biological target: Cytochrome P450 2D6 (Homo sapiens) (UniProt P10635)
Sequence (P10635 whole entry, looked up): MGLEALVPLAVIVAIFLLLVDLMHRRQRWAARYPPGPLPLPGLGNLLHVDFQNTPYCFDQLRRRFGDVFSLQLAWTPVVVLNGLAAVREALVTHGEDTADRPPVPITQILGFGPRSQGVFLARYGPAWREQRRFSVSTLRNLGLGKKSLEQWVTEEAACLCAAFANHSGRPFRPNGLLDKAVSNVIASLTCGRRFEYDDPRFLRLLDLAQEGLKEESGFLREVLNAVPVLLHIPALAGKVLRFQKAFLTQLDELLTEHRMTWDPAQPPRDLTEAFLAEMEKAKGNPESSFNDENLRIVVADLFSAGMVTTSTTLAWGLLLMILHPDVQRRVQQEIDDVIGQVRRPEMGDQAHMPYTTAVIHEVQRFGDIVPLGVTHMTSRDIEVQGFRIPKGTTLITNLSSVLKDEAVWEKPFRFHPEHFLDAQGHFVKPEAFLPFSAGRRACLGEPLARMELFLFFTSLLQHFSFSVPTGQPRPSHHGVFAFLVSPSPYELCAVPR
Test: qHTS Assay for Inhibitors and Substrates of Cytochrome P450 2D6 (AID 891); note: nearly all actives have a fitted effect of over 60% in size; note: potency is the fitted concentration of half-maximal effect
Settings: recombinant CYP2D6, luciferin-ME EGE luminescence; series mostly up to 57.1 µM
Procedure: NIH Molecular Libraries Screening Centers Network [MLSCN] NIH Chemical Genomics Center [NCGC] The P450 gene superfamily is involved in the metabolism and clearance of xenobiotics. […] The luciferin is then measured by luminescence after the addition of a luciferase detection reagent. […] Inhibitors and some substrates limit the production of luciferin, and decrease measured luminescence. […]
Results filed as inconclusive are left out. The source made the active and inactive calls. Calls come from the whole dose curve; as a rule, active = well fitted inhibition curve with a large enough effect; inconclusive = small, poorly fitted or top-dose-only effect; inactive = no such curve, though single readings can be large or run the other way.
measure: Potency

Answered cases to consult:
1. CC[C@H]1[C@@H]2C[C@@H]3[C@@H]4N(C)c5ccccc5[C@@]45C[C@@H]([C@H]2[C@@H]5O)N3[C@@H]1O	3.16 µM (active)
2. CCN1C[C@@]2(C)CC[C@H](O)[C@@]34[C@@H]5C[C@H]6[C@H](O)[C@@H]5[C@](O)(C[C@@H]6OC)[C@H](C[C@@H]23)[C@H]14	inactive
3. CCN(CC)C(=O)N[C@H]1C[C@H]2c3cccc4[nH]cc(c34)C[C@@H]2N(C)C1	0.0398 µM (active)
4. COc1ccc2c(c1)CN([C@H](C)[C@@H]1CC[C@@H]3[C@H]4CC[C@H]5C[C@@H](O)CC[C@@]5(C)[C@H]4CC[C@]31C)CO2	3.16 µM (active)
5. N#CC(=C(/N)Sc1ccccc1N)/C(C#N)=C(/N)Sc1ccccc1N	0.02 µM (active)

### Prompt # get_value(readout='Potency', item= C[C@H]1CC[C@]2(NC1)O[C@@H]1C[C@@H]3[C@@H]4CC=C5C[C@H](O)CC[C@@]5(C)[C@H]4CC[C@@]3(C)[C@H]1[C@@H]2C )
### Response inactive

### Prompt // same read-out, input: CO[C@@H](C)[C@](O)(C(=O)OC1=CCN2CC[C@H](O)[C@H]12)C(C)C
### Response inactive

---

Experiment: qHTS assay for small molecule activators of the nuclear factor-kappa B (NF-kB) signaling pathway (AID 651749); note: % of control where 0% means no effect
Settings: NF-kB-bla ME-180 cells, beta-lactamase FRET ratio, 16 h; hits give high values
Inconclusive results are not listed.
// activation lookup, one value per entry
// return numeric value only (unit: %, not printed)

Answered cases to consult:
1. CCCOc1nn(C(=O)NS(=O)(=O)c2ccccc2C(=O)OC)c(=O)n1C	-2.67
2. O=C(Nc1ccccc1)Nc1ccnc(Cl)c1	-0.762
3. CC1(C)C(C(=O)OC(C#N)c2cccc(Oc3ccccc3)c2)C1(C)C (centres undefined)	2.53
4. CON=C(C(=O)OC)c1ccccc1CO/N=C(\C)c1cccc(C(F)(F)F)c1	3.5
5. O=Cc1cccc(Oc2ccccc2)c1	-0.909

### Prompt # get_value(readout='activation', item= CCOP(=S)(Oc1cnc(C(C)(C)C)nc1)OC(C)C (centres undefined) )
### Response -0.139

### Prompt // same read-out, input: CCOP(=S)(OCC)SCn1nnc2ccccc2c1=O
### Response -3.08

### Prompt // same read-out, input: CC1(C(=O)Nc2ccc(O)c(Cl)c2Cl)CCCCC1
### Response 0.744

### Prompt // same read-out, input: CCC/C(=N\OCC)C1=C(O)CC(CC(C)SCC)CC1=O (centres undefined)
### Response 0.879

### Prompt // same read-out, input: C#CC(C)(C)NC(=O)c1cc(Cl)cc(Cl)c1
### Response -1.42

### Prompt // same read-out, input: CNC(=O)Oc1cccc2c1OC(C)(C)C2O (centres undefined)
### Response 0.725

### Prompt // same read-out, input: C=CCC1=C(C)[C@@H](OC(=O)[C@@H]2[C@@H](C=C(C)C)C2(C)C)CC1=O
### Response -0.0415

### Prompt // same read-out, input: CCN(CC)c1nc(C)cc(OP(=S)(OC)OC)n1
### Response 0.586
